- target_entity: T1, KicGAS (Kaposi sarcoma-associated herpesvirus …, UniProt Q2HR80 1-131)
- T1 sequence: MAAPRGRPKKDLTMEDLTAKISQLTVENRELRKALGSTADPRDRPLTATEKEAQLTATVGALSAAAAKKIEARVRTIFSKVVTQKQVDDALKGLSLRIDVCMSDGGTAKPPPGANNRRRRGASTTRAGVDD
- experiment_description: fluorescence polarization; Hill n 0.90; EMSA: 20 mM Tris-HCl pH 7.4, 150 mM NaCl, 10% glycerol, on ice, 20 nM FAM-DNA, gel at 4 C; FP: 400 pg/ul FAM-DNA, buffer and temperature not stated; Hill fits
- applied_conditions: protein: recombinant; tags: Avi-His6-SUMO removed (tag-free); label: 5' FAM
metric_name: pKd
// pKd: -log10(molar conc.)

Name the recorded pKd for ATCTATGACTGATCTGTACA (ssDNA) [ssISD20] .
5.29
